assayTarget: T1, recombinant human CD63 extracellular loop 2 expressed with a C-terminal Myc-Myc-hexahistidine (human)
T1 construct: also called hCD63 EC loop 2-MMH; human CD63 EC loop 2-MMH
T1 sequence (chain, as listed by the source limits assumed): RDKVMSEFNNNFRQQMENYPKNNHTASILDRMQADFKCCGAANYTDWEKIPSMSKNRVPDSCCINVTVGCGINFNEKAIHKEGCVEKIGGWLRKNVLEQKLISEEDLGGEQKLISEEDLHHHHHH
assaySummary: SPR Biacore, mAb captured, 25C
valueKind: koff (s⁻¹)
Number in s⁻¹, nothing else.

Examples with their reported koff follow.
[[record]]
binder = "H2M12385N (antibody, V domains shown, also called H2bM12385N; H2bM12385) VH: QVQLVESGGGLVKPGGSLRLSCAASGFTFTDYFMNWIRQAPGKGLEWVSYISNSGAIKYQADSVKGRFTISRDNAKNSLYLQMNSLRADDTAVYYCVRDPRSYYGFDYWGQGTLVTVSS VL: DIQMTQSPSSLSASVGDRVTITCRASQSIRNFLNWYQQKPGKAPRLLIYAASSLQSGVPSRFSGGGSGTDFTLTISSLQPEDFATYYCQQSYSNPPITFGQGTRLEIK"
valuekind = "koff"
recordedresult = 0.00331

[[record]]
binder = "H2M12454N (antibody, V domains shown, also called H2bM12454N) VH: QVQLVESGGGLVKPGGSLRLSCAVSGFTYTDYFMNWIRQAPGKGLEWVSYISNSGAIKYYADSVKGRFTISRDNAKNSLYLQMNGLRADDTAVYYCVRDPRSYYGFDYWGQGTLVTVSS VL: DIQMTQSPSSLSASVGDRVTITCRASQSISNFLNWYQQKPGKAPRLLIYGASNLQSGVPSRFSGGGSGTDFTLTISSLQPADFATYYCQQSFSNPPVTFGQGTRLEIN"
valuekind = "koff"
recordedresult = 0.00188


Query :: Recall and state the measured koff for H1M12388N (antibody, V domains shown) VH: QVQLEESGGGVVKAGGSLRLSCAASGFTFSDYYINWIRQAPGKGLEWVSYINNGGYTIYYADSVKGRFTMSRDNAKNSVYLQMNGLRAEDTAFYYCVRDPRSYYGFDYWGQGTLVTVSS VL: DIQMTQSPSSLSASVGDRVTITCRASQSISRFLHWYQQKPGKAPKLLIYGASSLQSGVPSRFSGSGSGTDFTLTISTLQPEDFATYYCQQSYSTPPITFGQGTRLEIK .
Result :: 0.000587
